tested on: UACC-62; assay: NCI tumour cell line growth inhibition, 48 h
Activity calls are given as the source filed them. Cut-off read from the data, not from the text of the source: active = GI50 up to about 1.1 µM and inactive = higher.
Outcome codes: active, inactive

- molecule: "Clc1ccc(OCc2nnc3n2N=C(c2ccccc2)CS3)c(Cl)c1"
  qualitative.label: "inactive"
- molecule: "COc1ccc(N2C(=O)CC(=O)N(NC(=O)C(C)Oc3ccccc3C)C2=S)cc1 (configuration not stated)"
  qualitative.label: "inactive"
- molecule: "CN(C)C(=S)/N=c1\\ssc(=S)n1Cc1ccccc1"
  qualitative.label: "active"
- molecule: "Cc1ccccc1C1CC(=O)CC(c2ccccc2C)C12C(=O)NC(=S)NC2=O (configuration not stated)"
  qualitative.label: "inactive"
- molecule: "N[C@@H](Cc1ccc2oc3cc(=O)c4ccccc4c-3nc2c1)C(=O)O"
  qualitative.label: "inactive"
- molecule: "O=c1cc(NNc2cccc3ccccc23)[nH]c(=O)[nH]1"
  qualitative.label: "inactive"
- molecule: "CO/C(N)=C(C#N)/N=C/c1ccccc1"
  qualitative.label: "inactive"
- molecule: "CC1CC(C#N)=C2NCCN2C1=O (configuration not stated)"
  qualitative.label: "inactive"
- molecule: "O=C1/C(=C\\c2cccc(Oc3ccccc3)c2)SC(c2ccccc2)N1c1cccc([N+](=O)[O-])c1 (configuration not stated)"
  qualitative.label: "inactive"
- molecule: "CCOC(=O)C1CCC(=O)N1C(=O)c1cccc(Cl)c1 (configuration not stated)"
  qualitative.label: "inactive"
- molecule: "Cc1ccc(/N=C/C=C(\\Nc2ccc(C)cc2)c2ccc3ccccc3c2)cc1"
  qualitative.label: "active"
- molecule: "CCCCCCCCCCCCCC(=O)NCO"
  qualitative.label: "inactive"
- molecule: "C#CC(O)/C=C/C(O)CCCC(O)CC#CC(O)C#CC(O)CCCC(O)/C=C/CCCC(=O)CCCCCCCCCCCCCCCC(O)C(O)C#CC(=O)O (configuration not stated)"
  qualitative.label: "inactive"
- molecule: "CCN(CC)CCn1c(=O)c2ccccc2n2c3c(=O)n(C)c(=O)n(C)c3nc12"
  qualitative.label: "active"
- molecule: "[N-]=[N+]=C(C(=O)C(=[N+]=[N-])C(=O)c1ccccc1)C(=O)c1ccccc1"
  qualitative.label: "inactive"
- molecule: "Cc1ccc(C(CCO)CCO)nc1"
  qualitative.label: "inactive"
- molecule: "FC1(F)ON2CCc3ccccc3C2[C@H]1c1ccccc1 (some centres not stated)"
  qualitative.label: "inactive"
- molecule: "C/C=C/[C@@H]1[C@H]2C(=O)[C@]3(Cl)[C@@H](/C=C/C)[C@@H]3C(=O)[C@@]12Cl"
  qualitative.label: "inactive"
- molecule: "C/C(=C(/C)c1cc[n+](C)cc1)c1cc[n+](C)cc1"
  qualitative.label: "inactive"
- molecule: "CCOC(=O)COc1ccc(OCC(=O)OCC)c2c1C(=O)CCCC2=O"
  qualitative.label: "inactive"
- molecule: "COP(=O)(OC)C(C)(C)NC(=O)NC(F)(F)F"
  qualitative.label: "inactive"
- molecule: "COc1c(C)n(CCO)ccc1=O"
  qualitative.label: "inactive"

* * *

tested on: OVCAR-5; test: NCI tumour cell line growth inhibition, 48 h
The source made the active and inactive calls. No stated cut-off is given here; in the data, active = GI50 up to about 1.1 µM and inactive = higher.
GI50 by entry:

- molecule: "CC1=C2C(=O)c3ccccc3C(=O)[C@H]2[C@H]2CCO[C@H]2O1"
  tgt: "OVCAR-5"
  GI50: "23.7 µM (inactive)"
- molecule: "COc1cc(CCNC2=CC(=O)c3cccnc3C2=O)ccc1O"
  tgt: "OVCAR-5"
  GI50: "1.63 µM (inactive)"
- molecule: "COc1ccc(-c2c3c(cc4cc5c(cc24)OCO5)C(=O)OC3)cc1OC"
  tgt: "OVCAR-5"
  GI50: "9.55 µM (inactive)"
- molecule: "C=CCN1C(N)=C(C(N)=O)S/C1=C1/SC(=S)N(c2ccc(C)cc2)C1=O"
  tgt: "OVCAR-5"
  GI50: "5.66 µM (inactive)"
- molecule: "NC(=O)NCCCC(NC(=O)OCCCCCn1ccc(=O)[nH]c1=O)C(=O)O (stereo not given)"
  tgt: "OVCAR-5"
  GI50: "> 100 µM (inactive)"
- molecule: "Cc1cc(-c2ccc(C(=O)C(c3ccccc3)(c3ccccc3)c3ccccc3)[nH]2)on1"
  tgt: "OVCAR-5"
  GI50: "23.8 µM (inactive)"
- molecule: "COP(=O)(OC)C(N)CCSC (stereo not given)"
  tgt: "OVCAR-5"
  GI50: "> 100 µM (inactive)"
- molecule: "COc1cc(CNC(=O)CCCCCCCCCCSSCCCCCCCCCCC(=O)NCc2ccc(O)c(OC)c2)ccc1O"
  tgt: "OVCAR-5"
  GI50: "> 10 µM (inactive)"
- molecule: "COC(=O)c1cncc2c1CC1C3(C(=O)OC)C=NC(C4C(CO)=CCC43)C21C (stereo not given)"
  tgt: "OVCAR-5"
  GI50: "> 100 µM (inactive)"
- molecule: "C=CCCON(C(=O)OC(C)(C)C)C(C)(C)C"
  tgt: "OVCAR-5"
  GI50: "> 100 µM (inactive)"

* * *

test system: PC-3; test: NCI tumour cell line growth inhibition, 48 h
The source made the active and inactive calls. Rule as the data show it: active = GI50 up to about 1.1 µM and inactive = higher.
Outcome codes: active, inactive

- compound: "COc1ccc2c(c1)N=C1CSC(c3cc([N+](=O)[O-])ccc3Cl)N1C2 (centres undefined)"
  qualitative.label: "inactive"
- compound: "Nc1nc(Cl)cc(NCC2(CO)CC(Cc3ccccc3)C2)n1 (centres undefined)"
  qualitative.label: "inactive"
- compound: "Cc1cccc2c1CC(C1OC(=O)c3ccccc31)C2=O (centres undefined)"
  qualitative.label: "inactive"
- compound: "O=C(CN1CCCC1=O)CS(=O)(=O)c1ccccc1"
  qualitative.label: "inactive"
- compound: "CC(=O)OC[C@@]12C[C@H]3C(=O)C(C)(C)C[C@H]3[C@]1(C)[C@@H](OC(C)=O)[C@]1(O)[C@H]([C@@H](OC(=O)c3ccccc3)[C@@H](C)[C@H]1OC(C)=O)[C@H]2OC(C)=O"
  qualitative.label: "inactive"
- compound: "CCOC(=O)c1c(N2CCN(C)CC2)[nH]c(=O)c(C(c2c(Cl)cccc2Cl)c2c(O)c(C(=O)OCC)c(N3CCN(C)CC3)[nH]c2=O)c1O"
  qualitative.label: "inactive"
- compound: "O=C(NCCCCNCCCNC(=O)c1cc(-c2ccccc2)nc2ccccc12)c1cc(-c2ccccc2)nc2ccccc12"
  qualitative.label: "inactive"
- compound: "O=C(CN1CCCCC1)CC(O)(C(F)(F)F)C(F)(F)F"
  qualitative.label: "inactive"
- compound: "CC(=O)NC1C(OCc2ccccc2)OC(CO)C(O)C1OCC(=O)NC(C)C(=O)NC(CCC(=O)OCCNC(=O)c1cccc2cc3ccccc3nc12)C(N)=O (centres undefined)"
  qualitative.label: "inactive"
- compound: "N#Cc1c(-c2ccccc2)cc(Nc2ccc(F)cc2)n2c1nc1ccccc12"
  qualitative.label: "inactive"
- compound: "O=C1c2cc([N+](=O)[O-])ccc2-c2cccc(F)c21"
  qualitative.label: "inactive"
- compound: "Cc1nn(C(=O)c2ccccc2O)c2c1C(c1ccc([N+](=O)[O-])cc1)SC(=N)N2 (centres undefined)"
  qualitative.label: "inactive"
- compound: "Cc1ccc(S(=O)(=O)N/N=C2\\CC(C)OC3=C2CCCCCC3)cc1 (centres undefined)"
  qualitative.label: "inactive"
- compound: "C=C1C(=O)C=C[C@]2(C)CC[C@H]3C(=C)C(=O)O[C@@H]3[C@@H]12"
  qualitative.label: "inactive"
- compound: "COc1cc(CNC(=O)CCCCCCCCCCSSCCCCCCCCCCC(=O)NCc2ccc(O)c(OC)c2)ccc1O"
  qualitative.label: "inactive"
- compound: "O=c1[nH]c2nccnc2c2c([N+](=O)[O-])cccc12"
  qualitative.label: "inactive"
- compound: "CC(=O)OCCOc1cc2c([nH]c3ccccc32)c(C)c2cccc1-2"
  qualitative.label: "inactive"
- compound: "C#C[C@]1(O)[C@@H](CO)O[C@@H](n2ccc(=O)[nH]c2=O)[C@@H]1O"
  qualitative.label: "active"
- compound: "Cc1c(Cl)ccc2c(=O)c3cccc(CC(=O)O)c3oc12"
  qualitative.label: "inactive"

* * *

GI50 by entry:
test system: OVCAR-8; test: NCI tumour cell line growth inhibition, 48 h
Active and inactive are the calls of the source. Cut-off read from the data, not from the text of the source: active = GI50 up to about 1.1 µM and inactive = higher.

- chemical.string: "Cc1ccc(S(=O)(=O)NC(=O)C2C(=O)CC3(CCCCC3)CC2=O)cc1"
  GI50: "27.7 µM (inactive)"
- chemical.string: "Cc1cc(N2CCN(C)CC2)n2nc(-c3ccc(Cl)cc3)nc2n1"
  GI50: "> 100 µM (inactive)"
- chemical.string: "c1coc(C2=Nc3cccc4cccc(c34)N2)c1"
  GI50: "39.3 µM (inactive)"
- chemical.string: "O=C1N=C(SC(SC2=NC(=O)C3(NN2)c2ccccc2-c2ccccc23)=C(SC2=NC(=O)C3(NN2)c2ccccc2-c2ccccc23)SC2=NC(=O)C3(NN2)c2ccccc2-c2ccccc23)NNC12c1ccccc1-c1ccccc12"
  GI50: "7.21 µM (inactive)"

These measurements were taken from ChEMBL document CHEMBL1201862.
